Assay: Plasma and tissue concentration in high fat diet mice, day 36
Assay type: in vivo, mice (Mus musculus—C57BL-6)
Settings: male, C57BL-6, mouse, plasma, oral, 50 mg/kg, 4 hr, read-out: Plasma
Experimental: Doses were 30 and 50 mg/kg and administered orally (p.o.) once a day (QD) for 36 days. Dose volume was 10 mL/kg, which was administered to male, 18-22-week-old mice (Mus musculus—C57BL-6) with body weight between 18-19.4 g each. Mice were grouped into 3 groups of 10. […] Plasma lipid profile: On day 34 total cholesterol levels, triglyceride, HDL, and LDL levels were detected. […] Cumulative food consumption was measured daily starting from day 1 onwards up to end of the study period. […]
measure: concentration at 4 h (ng/mL)

>>> valuereported("O=c1[nH]c(-c2c[nH]c3cc(F)c(-c4ccc(C5(O)CCC5)cc4)c(F)c23)no1 [Compound I-11]")
112
